# reported IC50; entries follow
# targetOrTestSystem: UniProt Q9BY41
# Sequence (Q9BY41 1-377): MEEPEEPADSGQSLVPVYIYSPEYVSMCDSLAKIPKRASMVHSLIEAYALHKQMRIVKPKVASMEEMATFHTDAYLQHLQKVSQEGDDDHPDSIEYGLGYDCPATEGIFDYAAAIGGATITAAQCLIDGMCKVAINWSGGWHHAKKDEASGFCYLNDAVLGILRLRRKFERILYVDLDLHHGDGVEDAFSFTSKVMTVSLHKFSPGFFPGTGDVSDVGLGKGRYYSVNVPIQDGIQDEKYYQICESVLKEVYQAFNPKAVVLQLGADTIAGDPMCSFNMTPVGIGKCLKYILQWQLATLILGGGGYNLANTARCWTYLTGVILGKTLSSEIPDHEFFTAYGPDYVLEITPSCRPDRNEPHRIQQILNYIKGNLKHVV
# testDetails: in vitro activity-based HDAC assay
# conditionParameters: human HDAC isoform panel, Table 1
# Experimental: The exemplary compounds of Formula I and structurally related compounds were synthesized to assess their structure-activity relationship. […] The IC50 values for each exemplary compound were used to calculate the selectivity of the exemplary compounds for Formula I to HDAC6. The selectivity of each exemplary compound for HDAC6 was determined from examining the potency of HDAC6 in relation to the highest binding affinity of the other HDAC isoforms tested.
Write it as a number; the unit nM goes unstated.

O=C(NO)c1ccc(CN(C2CC2)S(=O)(=O)c2cc(F)c(F)c(F)c2F)cc1 [Compound I-13] | 334

Query: Reported IC50 for O=C(NO)c1ccc(CN(Cc2cccnc2)S(=O)(=O)c2cc(F)c(F)c(F)c2F)cc1 [Compound I-18] : what is it?
Response: 316
